test.system: human 5-HT2A (Homo sapiens (Human), UniProt P28223)
measurement.protocol: cell-based
Assay type: cell-based
recorded.conditions: agonist potency, n = 3-4; read-out: 5-HT2A [pEC50 ± S.E.M.] (converted)
experimental.readout: EC50

## Task Report EC50 for COc1cc([C@H]2CCCNC2)c(OC)cc1I please.
## Result 263 nM

---
## Task Report EC50 for CCOc1cc(C(F)(F)F)c(OCC)cc1[C@@H]1CCCNC1.Cl [Compound 22, hydrochloride] please.
## Result 102 nM

## Task Report EC50 for CCOc1cc([C@H]2CCCNC2)c(OC)cc1CC.Cl [Compound 33, hydrochloride] please.
## Result 1120 nM

###

The entries below come with measured EC50 values attached.
test.system: 5-HT2B (Homo sapiens (Human))
measurement.protocol: IP assay (Eurofins, IP1 HTRF), HEK293 cells
Assay type: cell-based
recorded.conditions: duplicate determinations, read-out: 5-HT2B EC50
Counter-ions that a name gives are not always drawn.
The response must be a number in nM with no trailing unit.

## Task Report EC50 for CCCCc1cc(OC)c([C@@H]2CCCNC2)cc1OC [Compound 57, hydrochloride] please.
## Result 350

## Task Report EC50 for COc1cc([C@@H]2CCCNC2)c(OC)cc1SC.Cl [Compound 18, hydrochloride] please.
## Result 180

## Task Report EC50 for COc1cc(C(F)(F)F)c(OC)cc1C1CCCNC1C.Cl (stereo not shown) [Compound 35, hydrochloride] please.
## Result 850

---
## Task Report EC50 for COc1cc(C(F)(F)F)c(F)cc1[C@@H]1CCCNC1.Cl [Compound 51, hydrochloride] please.
## Result 740

###

test.system: human 5-HT2A (Homo sapiens (Human), UniProt P28223)
measurement.protocol: cell-based
Format: cell-based
recorded.conditions: IP assay, % of Rmax of 5-HT
Counter-ions that a name gives are not always drawn.
experimental.readout: 5-HT2A Rmax (%)
The response must be a number in % with no trailing unit.

## Task Please tell me: 5-HT2A Rmax of COc1cc(C(F)(F)F)c(OC)cc1C1CCCNC1C.Cl (stereo not drawn) , system human 5-HT2A (Homo sapiens (Human), UniProt P28223)?
## Result 70

---
## Task Please tell me: 5-HT2A Rmax of COc1cc(C(F)(F)F)ccc1[C@@H]1CCCNC1 [Compound 53, hydrochloride] , system human 5-HT2A (Homo sapiens (Human), UniProt P28223)?
## Result 87

## Task Please tell me: 5-HT2A Rmax of CCOc1cc(CC)c(OC)cc1[C@@H]1CCCNC1 , system human 5-HT2A (Homo sapiens (Human), UniProt P28223)?
## Result 45

###

The entries below come with measured pEC50 values attached.
test.system: 5-HT2B (Homo sapiens (Human), UniProt P41595)
Sequence (P41595 whole entry, looked up): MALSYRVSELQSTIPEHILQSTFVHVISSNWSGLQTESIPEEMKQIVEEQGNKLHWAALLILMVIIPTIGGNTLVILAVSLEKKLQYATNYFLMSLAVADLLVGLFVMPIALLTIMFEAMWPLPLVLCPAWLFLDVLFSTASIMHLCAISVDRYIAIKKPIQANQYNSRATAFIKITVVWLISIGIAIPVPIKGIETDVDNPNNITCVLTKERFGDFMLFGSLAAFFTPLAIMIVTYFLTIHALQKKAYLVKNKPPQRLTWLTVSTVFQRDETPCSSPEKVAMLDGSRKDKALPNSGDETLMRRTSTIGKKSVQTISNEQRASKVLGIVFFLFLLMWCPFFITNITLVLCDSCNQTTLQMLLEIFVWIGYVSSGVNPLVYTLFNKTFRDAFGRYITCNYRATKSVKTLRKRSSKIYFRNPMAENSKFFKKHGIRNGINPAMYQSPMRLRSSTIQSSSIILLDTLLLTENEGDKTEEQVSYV
measurement.protocol: IP assay (Eurofins, IP1 HTRF), HEK293 cells;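 note: agonist effect read as cellular IP1 production by HTRF using a europium cryptate anti-IP1 antibody donor and D2-labeled IP1 acceptor, eight compound concentrations in each cell line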
Format: cell-based
recorded.conditions: duplicate determinations, read-out: 5-HT2B EC50
pEC50: −log10 of the molar value. Structures can show the parent of a compound that is named as a salt.

Solved cases (2 shown):
## Task Report pEC50 for CCOc1cc(C(F)(F)F)c(OCC)cc1[C@@H]1CCCNC1.Cl [Compound 22, hydrochloride] please.
## Result < 4.00

## Task Report pEC50 for COc1cc([C@H]2CC[C@H](c3ccccc3OC)NC2)c(OC)cc1Br [Compound 8b, reference compound] please.
## Result < 4.00

Alright, here's another compound for you.
## Task Report pEC50 for COc1cc([C@@H]2CCCNC2)c(OC2CC2)cc1C(F)(F)F [Compound 55, hydrochloride] please.
## Result < 4.00
